In what follows, each item is paired with its pIC50 for Epidermal growth factor receptor (Homo sapiens, UniProt P00533).
pIC50: −log10 of the molar value.

## Input Bench note: what pIC50 did CC1=CCC[C@](C)(CC/C(C)=C/CC2=C(O)C(=O)C=C(N[C@@H](CO)C(=O)O)C2=O)[C@@H]1C show?
## Output < 3.33

## Input What do you get for CC1=CCC[C@](C)(CC/C(C)=C/CC2=C(O)C(=O)C=C(N[C@H](CO)C(=O)O)C2=O)[C@@H]1C ?
## Output < 3.33

## Input C=C1[C@H](C)CCC[C@]1(C)CC/C(C)=C/CC1=C(O)C(=O)C=C(N[C@@H](CO)C(=O)O)C1=O ?
## Output < 3.33

## Input One more compound: CC1=CCC[C@](C)(CC/C(C)=C/CC2=C(O)C(=O)C=C(NCC(=O)O)C2=O)[C@@H]1C
## Output < 3.30

###

Target: Receptor tyrosine-protein kinase erbB-2 (Homo sapiens, UniProt P04626)
Sequence (P04626 whole entry): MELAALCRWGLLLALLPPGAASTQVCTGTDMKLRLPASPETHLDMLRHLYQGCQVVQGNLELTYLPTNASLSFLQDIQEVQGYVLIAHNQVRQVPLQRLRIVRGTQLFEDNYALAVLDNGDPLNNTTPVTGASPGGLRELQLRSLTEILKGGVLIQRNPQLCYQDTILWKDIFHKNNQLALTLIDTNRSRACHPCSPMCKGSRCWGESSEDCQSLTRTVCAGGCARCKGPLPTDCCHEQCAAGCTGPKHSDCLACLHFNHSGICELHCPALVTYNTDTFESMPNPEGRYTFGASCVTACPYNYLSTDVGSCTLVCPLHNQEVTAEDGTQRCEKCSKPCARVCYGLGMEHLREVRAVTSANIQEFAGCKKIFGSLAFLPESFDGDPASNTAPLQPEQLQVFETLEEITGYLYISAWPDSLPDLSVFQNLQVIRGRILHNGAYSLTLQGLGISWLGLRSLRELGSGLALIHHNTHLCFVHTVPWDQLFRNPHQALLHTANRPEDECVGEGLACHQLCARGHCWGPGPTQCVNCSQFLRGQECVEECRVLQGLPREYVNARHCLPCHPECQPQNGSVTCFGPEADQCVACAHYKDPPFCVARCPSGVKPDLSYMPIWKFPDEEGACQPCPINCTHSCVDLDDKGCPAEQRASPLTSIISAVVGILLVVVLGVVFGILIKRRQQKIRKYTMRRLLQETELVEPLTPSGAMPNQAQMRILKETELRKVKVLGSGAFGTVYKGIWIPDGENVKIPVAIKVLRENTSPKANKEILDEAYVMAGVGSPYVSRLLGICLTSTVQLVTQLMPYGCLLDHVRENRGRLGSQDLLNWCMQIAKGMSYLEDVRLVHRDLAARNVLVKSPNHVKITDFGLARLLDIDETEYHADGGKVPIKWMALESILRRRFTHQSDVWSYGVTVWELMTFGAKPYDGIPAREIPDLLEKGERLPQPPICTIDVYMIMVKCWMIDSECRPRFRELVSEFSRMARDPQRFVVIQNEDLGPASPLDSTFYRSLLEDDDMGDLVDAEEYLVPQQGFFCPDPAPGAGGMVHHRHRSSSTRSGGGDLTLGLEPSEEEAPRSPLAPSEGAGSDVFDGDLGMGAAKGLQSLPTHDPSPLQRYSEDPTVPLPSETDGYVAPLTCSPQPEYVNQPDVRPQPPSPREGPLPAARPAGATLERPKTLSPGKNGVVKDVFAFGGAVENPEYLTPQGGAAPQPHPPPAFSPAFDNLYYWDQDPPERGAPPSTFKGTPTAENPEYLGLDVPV
Test: Inhibition of HER2 (unknown origin) by Z-LYTE assay
pIC50: −log10 of the molar value.
READOUT KIND: pIC50

// known answers, use as guide
INSERT INTO measurements (molecular_string, result) VALUES
  ('C=C1[C@H](C)CCC[C@]1(C)CC/C(C)=C/CC1=C(O)C(=O)C=C(N[C@H](C(=O)O)C(C)C)C1=O', 3.98),
  ('CC1=CCC[C@](C)(CC/C(C)=C/CC2=C(O)C(=O)C=C(N[C@H](C(=O)O)[C@H](C)O)C2=O)[C@@H]1C', 4.05);

A. C=C1[C@H](C)CCC[C@]1(C)CC/C(C)=C/CC1=C(O)C(=O)C=C(N[C@@H](C(=O)O)C(C)C)C1=O
B. C=C1[C@H](C)CCC[C@]1(C)CC/C(C)=C/CC1=C(O)C(=O)C=C(NCC(=O)O)C1=O
## Input Compare pIC50: is it lower for A or for B ? Refer to your chosen item by its label in the answer.
## Output B

###

Biological target: Epidermal growth factor receptor (Homo sapiens)
Sequence (P00533 whole entry): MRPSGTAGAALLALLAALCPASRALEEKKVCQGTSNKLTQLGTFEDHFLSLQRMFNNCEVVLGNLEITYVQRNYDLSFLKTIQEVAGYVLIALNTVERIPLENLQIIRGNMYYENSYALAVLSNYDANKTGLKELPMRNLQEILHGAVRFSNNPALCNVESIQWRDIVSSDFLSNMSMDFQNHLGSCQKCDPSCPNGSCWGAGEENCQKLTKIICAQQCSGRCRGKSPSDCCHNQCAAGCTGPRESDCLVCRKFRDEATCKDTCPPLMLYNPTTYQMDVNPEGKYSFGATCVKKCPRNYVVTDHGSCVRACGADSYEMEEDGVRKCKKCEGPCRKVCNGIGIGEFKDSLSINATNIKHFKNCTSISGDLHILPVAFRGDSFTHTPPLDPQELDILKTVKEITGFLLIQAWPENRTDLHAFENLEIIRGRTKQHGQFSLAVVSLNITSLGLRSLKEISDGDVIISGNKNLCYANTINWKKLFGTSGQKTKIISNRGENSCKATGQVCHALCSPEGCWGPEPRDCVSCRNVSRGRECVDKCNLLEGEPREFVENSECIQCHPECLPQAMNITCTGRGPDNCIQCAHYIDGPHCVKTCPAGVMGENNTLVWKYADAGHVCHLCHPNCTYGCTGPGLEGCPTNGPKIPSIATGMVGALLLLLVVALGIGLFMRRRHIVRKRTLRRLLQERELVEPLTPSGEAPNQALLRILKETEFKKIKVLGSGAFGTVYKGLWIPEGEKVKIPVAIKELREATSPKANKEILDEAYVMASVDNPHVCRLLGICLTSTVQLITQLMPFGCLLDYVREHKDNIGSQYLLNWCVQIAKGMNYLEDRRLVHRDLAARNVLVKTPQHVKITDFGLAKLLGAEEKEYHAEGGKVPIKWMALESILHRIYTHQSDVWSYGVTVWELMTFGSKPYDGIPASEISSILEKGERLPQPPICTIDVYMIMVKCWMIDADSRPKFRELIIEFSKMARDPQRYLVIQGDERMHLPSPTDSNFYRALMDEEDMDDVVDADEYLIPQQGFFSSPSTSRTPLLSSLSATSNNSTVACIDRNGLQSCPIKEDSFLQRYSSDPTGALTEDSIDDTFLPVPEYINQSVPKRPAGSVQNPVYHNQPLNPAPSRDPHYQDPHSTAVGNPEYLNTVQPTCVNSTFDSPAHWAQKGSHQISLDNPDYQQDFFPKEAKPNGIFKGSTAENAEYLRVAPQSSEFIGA
READOUT KIND: IC50 (µM)

INSERT INTO assay_data (molecular_string, experimental_target, result) VALUES
  ('C=C1[C@H](C)CCC[C@]1(C)CC/C(C)=C/CC1=C(O)C(=O)C=C(N[C@H](C(=O)O)C(C)C)C1=O', 'Epidermal growth factor receptor (Homo sapiens)', 435),
  ('C=C1[C@H](C)CCC[C@]1(C)CC/C(C)=C/CC1=C(O)C(=O)C=C(N[C@@H](C(=O)O)C(C)C)C1=O', 'Epidermal growth factor receptor (Homo sapiens)', 293);

A. CC1=CCC[C@](C)(CC/C(C)=C/CC2=C(O)C(=O)C=C(N[C@@H](C(=O)O)C(C)C)C2=O)[C@@H]1C
B. C=C1[C@H](C)CCC[C@]1(C)CC/C(C)=C/CC1=C(O)C(=O)C=C(N[C@@H](C(=O)O)[C@@H](C)O)C1=O
## Input Which numeric IC50 is bigger, that of A or that of B ? Selection: enter the item's label.
## Output A

###

In what follows, each item is paired with its IC50 for Receptor tyrosine-protein kinase erbB-2 (Homo sapiens).

INSERT INTO results (molecule, readout_kind, result) VALUES
  ('C=C1[C@H](C)CCC[C@]1(C)CC/C(C)=C/CC1=C(O)C(=O)C=C(N[C@@H](C(=O)O)[C@H](C)O)C1=O', 'IC50', '> 449 µM');

## Input Requested field: IC50. Item: C=C1[C@H](C)CCC[C@]1(C)CC/C(C)=C/CC1=C(O)C(=O)C=C(OC)C1=O [METACHROMIN A]
## Output > 558 µM

## Input Then CC1=CCC[C@](C)(CC/C(C)=C/CC2=C(O)C(=O)C=C(N[C@@H](C(=O)O)[C@@H](C)O)C2=O)[C@@H]1C ?
## Output > 449 µM

###

Target: Epidermal growth factor receptor (Homo sapiens)
Assay: Inhibition of EGFR (unknown origin) by Z-LYTE assay
Recorded IC50 values for a group of molecules are listed next.

INSERT INTO results (molecular_string, result) VALUES
  ('C=C1[C@H](C)CCC[C@]1(C)CC/C(C)=C/CC1=C(O)C(=O)C=C(N[C@H](CO)C(=O)O)C1=O', '> 463 µM'),
  ('C=C1[C@H](C)CCC[C@]1(C)CC/C(C)=C/CC1=C(O)C(=O)C=C(N[C@@H](C(=O)O)[C@H](C)O)C1=O', '> 449 µM');

Lab note: next molecule to report on.
## Input # query: IC50 of entry CC1=CCC[C@](C)(CC/C(C)=C/CC2=C(O)C(=O)C=C(N[C@H](C(=O)O)[C@@H](C)O)C2=O)[C@@H]1C
## Output > 449 µM
